Tested on: Fer (mouse)
Assay: phosphorylation enrichment, bacterial display (enrichment ratio); higher = better substrate or ligand; peptides without Tyr show the background;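 also: 11-residue human phosphosite peptides and single-mutation variants displayed on the E. coli surface, counted by deep sequencing, each peptide's frequency after selection divided by its frequency in the unselected input library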;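 also: frequency after pTyr selection over input frequency; kinase dosed for 20-30% of maximal phosphorylation in three min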
Below, each entry is listed alongside its reported phosphorylation enrichment.
Give the figure only, with no unit attached.

HGEAVYSRDCV [XPC_Y676_R671H] :: 0.664
IRKDLYANNVL [ACTA2_Y296] :: 0.422
DERQPYVHMNG [IGF1R_Y1346_A1347V] :: 0.446

Now consider a different sequence.
Look at this sequence and give its reported phosphorylation enrichment. KILTHYKRPHT [KMT2D_Y5349]
0.445

###

Below, each entry is listed alongside its reported phosphorylation enrichment.
Molecular target: Jak2 (UniProt O60674)
Sequence (O60674 whole entry, looked up): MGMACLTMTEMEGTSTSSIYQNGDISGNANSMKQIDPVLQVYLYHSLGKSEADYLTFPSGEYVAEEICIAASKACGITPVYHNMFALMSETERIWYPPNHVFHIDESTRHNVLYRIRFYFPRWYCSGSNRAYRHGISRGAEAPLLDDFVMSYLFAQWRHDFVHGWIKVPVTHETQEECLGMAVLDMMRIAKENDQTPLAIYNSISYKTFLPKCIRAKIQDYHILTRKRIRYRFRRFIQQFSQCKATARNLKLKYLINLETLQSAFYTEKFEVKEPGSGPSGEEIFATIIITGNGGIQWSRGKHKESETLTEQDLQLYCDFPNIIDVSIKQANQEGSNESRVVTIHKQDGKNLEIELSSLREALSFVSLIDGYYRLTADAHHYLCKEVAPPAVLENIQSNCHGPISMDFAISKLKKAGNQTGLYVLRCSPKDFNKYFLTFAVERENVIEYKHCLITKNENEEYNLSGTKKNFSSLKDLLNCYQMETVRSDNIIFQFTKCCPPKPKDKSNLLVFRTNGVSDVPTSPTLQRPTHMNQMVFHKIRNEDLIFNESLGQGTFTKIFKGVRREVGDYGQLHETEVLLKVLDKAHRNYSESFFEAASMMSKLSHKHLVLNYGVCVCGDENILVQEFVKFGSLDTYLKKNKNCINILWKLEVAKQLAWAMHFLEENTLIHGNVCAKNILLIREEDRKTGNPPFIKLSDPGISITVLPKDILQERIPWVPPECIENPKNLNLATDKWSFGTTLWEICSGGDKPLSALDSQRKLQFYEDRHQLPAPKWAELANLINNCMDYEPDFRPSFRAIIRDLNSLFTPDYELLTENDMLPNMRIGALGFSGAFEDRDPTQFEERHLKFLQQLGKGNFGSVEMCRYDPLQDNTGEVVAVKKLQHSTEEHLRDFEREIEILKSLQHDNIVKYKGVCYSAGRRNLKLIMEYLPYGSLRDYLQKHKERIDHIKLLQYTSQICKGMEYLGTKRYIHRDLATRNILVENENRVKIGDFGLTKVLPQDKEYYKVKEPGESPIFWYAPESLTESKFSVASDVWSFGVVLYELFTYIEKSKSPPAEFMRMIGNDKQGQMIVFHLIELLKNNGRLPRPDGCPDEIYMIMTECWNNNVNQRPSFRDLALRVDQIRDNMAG
Experiment: phosphorylation enrichment, bacterial display (enrichment ratio); higher = better substrate or ligand; peptides without Tyr show the background
Give the figure only, with no unit attached.

Study these solved cases before continuing.
ILLAGCLVMVI [SLC28A3_Y113_Y113C] :: 1.18
GIVKAYFVRAR [AIPL1_Y267_YF] :: 1.13
YQSKHYACIRQ [TIMP3_Y182] :: 0.626
HPFNSYTFPRL [PAK5_Y316_S312P_YF] :: 0.995

Look at this sequence and give its reported phosphorylation enrichment. INPIIYAFVVE [CCR5_Y297_G301V]
1.2

Look at this sequence and give its reported phosphorylation enrichment. LLREWYLQDPF [SIX3_Y225_YF]
1.52

Look at this sequence and give its reported phosphorylation enrichment. IYRASYVPFAA [RBM47_Y541_G538R]
0.82

Look at this sequence and give its reported phosphorylation enrichment. KFADVYVGICL [B3GALNT1_Y269_E266A]
1.21
